assay: Rifaximin systemic exposure/pharmacokinetics in healthy subjects, IBS subjects and liver impaired subjects; assay type: in vivo, human; details: human, plasma, oral, 550 mg, Child-Pugh C subjects; read-out: Mean half-life (converted)
PROPERTY_LABEL: half-life (h)
Note: unit h is implicit; provide only the numeric part.

Looking up CO[C@H]1/C=C/O[C@@]2(C)Oc3c(C)c(O)c4c(O)c(c5c(nc6cc(C)ccn65)c4c3C2=O)NC(=O)/C(C)=C\C=C\[C@H](C)[C@H](O)[C@@H](C)[C@@H](O)[C@@H](C)[C@H](OC(C)=O)[C@@H]1C , I see its half-life listed as 6.35

---

Assay: Rifaximin systemic exposure/pharmacokinetics in healthy subjects, IBS subjects and liver impaired subjects
Assay type: in vivo, human
Conditions: human, plasma, 550 mg, 550 mg BID repeat dosing; Child-Pugh A; read-out: Mean steady-state AUCtau
Description: Subjects with non-c-IBS had mean AUCtau values following a single dose and multiple TID doses of 9.69 ng·h/mL and 16.0 ng·h/mL, respectively, reflecting an accumulation ratio (Rc; multiple-dose AUCtau/single-dose AUCtau) of 1.77. […] Pharmacokinetic parameters were measured after a single dose and multiple doses (14 days).
PROPERTY_LABEL: AUC (ng·h/mL)
Note: unit ng·h/mL is implicit; provide only the numeric part.

Looking up CO[C@H]1/C=C/O[C@@]2(C)Oc3c(C)c(O)c4c(O)c(c5c(nc6cc(C)ccn65)c4c3C2=O)NC(=O)/C(C)=C\C=C\[C@H](C)[C@H](O)[C@@H](C)[C@@H](O)[C@@H](C)[C@H](OC(C)=O)[C@@H]1C [Rifaximin] , I see its AUC listed as 118

Values were extracted from patent US10610522B2.
